The following compounds are listed with their measured TGI values.
Test system: CAKI-1 renal
Experiment: NCI tumour cell line growth inhibition, 48 h
Property: TGI (µM)

INSERT INTO assay_data (compound, target_entity, property, rel, quantitative_result) VALUES
  ('O=[N+]([O-])c1ccccc1NC1c2ccccc2Oc2ccccc21', 'CAKI-1 renal', 'TGI', '>', 100),
  ('Cc1cc(Nc2c3ccccc3nc3ccccc23)ccc1NS(C)(=O)=O', 'CAKI-1 renal', 'TGI', '=', 15.6),
  ('CN(C)/N=C(/c1nc2ccc([N+](=O)[O-])cc2[nH]c1=O)C(O)c1ccco1 (stereo not given)', 'CAKI-1 renal', 'TGI', '>', 100),
  ('COC1=CC23CCCN2CCc2cc4c(cc2C3C1O)OCO4 (stereo not given)', 'CAKI-1 renal', 'TGI', '=', 92),
  ('C/C=C\C(CC(=O)NCCC1CN(S(=O)(=O)C(F)(F)F)c2ccccc21)CC(=O)OC (stereo not given)', 'CAKI-1 renal', 'TGI', '>', 100);
